Cited source for all entries: patent US20250051321A1

target: UniProt:Q13822; test: ATX enzyme inhibition assay (Amplex UltraRed/choline oxidase/HRP, 16:0 Lyso PC substrate); type: biochemical; conditions: assay buffer pH 8.5; read-out: IC50 (nM) pH 8.5
Provide the reported IC50 of each item.
Give the number first and the unit second.

N#Cc1cc(Br)cc(F)c1NC1=CCCC1=O [E1-2]
18.2 nM

// for each compound below, give its IC50
1. CN(c1nc(-c2ccc(F)cc2)c(C#N)s1)c1c2c(nc3c(F)cc(N4CC5(CN(C(=O)[C@@H]6CCOC6)C5)C4)cc13)[C@@H](O)CC2 (single isomer, unassigned)
2. CN(c1nc(-c2ccc(F)cc2)c(C#N)s1)c1c2c(nc3ncc(N4CC5(CN(C(=O)[C@H]6CCOC6)C5)C4)cc13)CCC2
3. CN(c1nc(-c2ccc(F)cc2)c(C#N)s1)c1c2c(nc3c(F)cc(N4CCN(CC(=O)N5CC(C)(O)C5)CC4)cc13)COC2
4. CN1CC[C@H](C(=O)N2CC3(C2)CN(c2cc(F)c4nc5c(c(N(C)c6nc(-c7ccc(F)cc7)c(C#N)s6)c4c2)CCC5O)C3)C1 (stereo partly drawn)
5. CN(c1nc(-c2ccc(F)cc2)c(C#N)s1)c1c2c(nc3c(F)cc(N4CC5(CN(C(=O)C6(O)CC6)C5)C4)cc13)COC2

["19.8 nM", "22.7 nM", "66.8 nM", "21.4 nM", "73 nM"]

---

target: ATX (Homo sapiens (Human), UniProt Q13822); test: ATX enzyme inhibition assay (Amplex UltraRed/choline oxidase/HRP, 16:0 Lyso PC substrate); assay type: biochemical; details: assay buffer pH 8.5; read-out: IC50 (nM) pH 8.5
IC50 strictly less than 50 nM = label 1. Otherwise label 0.

Look over these answered cases.
CN(c1nc(-c2ccc(F)cc2)c(C#N)s1)c1c2c(nc3c(F)cc(N4CC5(CN(C(=O)[C@H]6CCOC6)C5)C4)cc13)CCO2
label 0
CN(c1nc(-c2ccc(F)cc2)c(C#N)s1)c1c2c(nc3c(F)cc(N4CC5(CCN(CC(=O)N6CC(O)C6)CC5)C4)cc13)CCC2
label 0
CN(c1nc(-c2ccc(F)cc2)c(C#N)s1)c1c2c(nc3c(F)cc(N4CCC5(CCN(C(=O)[C@@H]6CCOC6)C5)C4)cc13)CCC2 (stereo partly drawn)
label 0
CN(c1nc(-c2ccc(F)cc2)c(C#N)s1)c1c2c(nc3cc(F)c(N4CCN(CC(=O)N5CC(O)C5)CC4)cc13)CCC2
label 0
CN(c1nc(-c2ccc(F)cc2)c(C#N)s1)c1c2c(nc3c(F)cc(N4CC5(CN(CC(=O)N6CC(O)C6)C5)C4)cc13)COC2
label 0

Next:
Would you kindly verify if IC50 of CN(c1nc(-c2ccc(F)cc2)c(C#N)s1)c1c2c(nc3c(F)cc(N4CCN(CC(=O)N5CC(O)C5)CC4)cc13)C(O)CC2 (stereo not drawn) [E1-1] is strictly less than 50 nM? label 1

---

experiment: Pharmacokinetic test in mice; type: in vivo, ICR mice; conditions: male, ICR, mouse, plasma, 5 mg/kg, PO - 5 mpk
Would you please tag the item YES when its half-life is 4 h or above, and NO when it is below?

Solved entries:
CN(c1nc(-c2ccc(F)cc2)c(C#N)s1)c1c2c(nc3c(F)cc(N4CC5(CN(C(=O)C(C)(C)O)C5)C4)cc13)[C@](C)(O)CC2 (single isomer, unassigned)
NO
CN(c1nc(-c2ccc(F)cc2)c(C#N)s1)c1c2c(nc3c(F)cc(N4CC5(CN(C(=O)C(C)(C)O)C5)C4)cc13)CC2
NO
Cc1cc(N2CC3(CN(C(=O)C(C)(C)O)C3)C2)cc2c(N(C)c3nc(-c4ccc(F)cc4)c(C#N)s3)c3c(nc12)COC3
NO
Cc1cc(N2CC3(CN(C(=O)C(C)(C)O)C3)C2)cc2c(N(C)c3nc(-c4ccc(F)cc4)c(C#N)s3)c3c(nc12)CC3
YES

Could you now consider this next molecule?
Does the reported half-life for Cc1cc(N2CC3(CN(C(=O)C(C)(C)O)C3)C2)nc2c(N(C)c3nc(-c4ccc(F)cc4)c(C#N)s3)c3c(nc12)C(O)CC3 (stereo not drawn) fall at or above the 4 h mark? NO

---

tested on: plasma LPA 18:1 and LPA 18:2; assay: Human plasma ex vivo assay (LPA 18:1 / 18:2 by LC-MS/MS); format: biochemical; conditions: 37° C., 2 hours, LPA 18:1, read-out: Human plasma ex vivo assay IC50 (18:1 LPA)
endpoint label: pIC50
Answers are plain numbers, as −log10 of the molar value.

CN(c1nc(-c2ccc(F)cc2)c(C#N)s1)c1c2c(nc3cnc(N4CCN(CC(=O)N5CC(O)C5)CC4)cc13)CCC2 [Example A20]
6.77
CN1CCC(F)(C(=O)N2CC3(C2)CN(c2cc(F)c4nc5c(c(N(C)c6nc(-c7ccc(F)cc7)c(C#N)s6)c4c2)CCC5O)C3)C1 (stereo not drawn) [Example E42]
6.39
CN(c1nc(-c2ccc(F)cc2)c(C#N)s1)c1c2c(nc3ccc(N4CCN(CC(=O)N5CC(O)C5)CC4)nc13)CCO2 [Example A12]
7.19
CN(c1nc(-c2ccc(F)cc2)c(C#N)s1)c1c2c(nc3c(F)cc(N4CC5(CN(C(=O)C6CC(=O)OC67CCCC7)C5)C4)cc13)C(O)CC2 (stereo not drawn) [Example E49]
6.31
CN(c1nc(-c2ccc(F)cc2)c(C#N)s1)c1c2c(nc3c(F)cc(N4CC5(CN(C(=O)C6CC(O)C6)C5)C4)cc13)C(O)CC2 (stereo not drawn) [Example E58]
6.58
CN(c1nc(-c2ccc(F)cc2)c(C#N)s1)c1c2c(nc3c(F)cc(N4CC5(CN(CC(=O)N6CC(C)(O)C6)C5)C4)cc13)C(O)CC2 (stereo not drawn) [Example E44]
6.53
CN(c1nc(-c2ccc(F)cc2)c(C#N)s1)c1c2c(nc3c(F)cc(N4CC5(CN(C(=O)[C@H]6CCOC6)C5)C4)cc13)CCO2 [Example C12]
6.53
Cc1cc(N2CC3(CN(C(=O)C(C)(C)O)C3)C2)cc2c(N(C)c3nc(-c4ccc(F)cc4)c(C#N)s3)c3c(nc12)C(O)CC3 (stereo not drawn) [Example E26]
6.29

Each molecule below has a reported value. Please supply its pIC50.
1. CN(c1nc(-c2ccc(F)cc2)c(C#N)s1)c1c2c(nc3c(F)cc(N4CC5(CN(C(=O)[C@H]6CCOC6)C5)C4)cc13)[C@H](O)CC2 (single isomer, unassigned) [Example E5-a]
2. CN(c1nc(-c2ccc(F)cc2)c(C#N)s1)c1c2c(nc3ncc(N4CC5(CN(C(=O)[C@@H]6CCOC6)C5)C4)cc13)CC2 [Example C17]
3. CN(c1nc(-c2ccc(F)cc2)c(C#N)s1)c1c2c(nc3c(F)cc(N4CC5(CN(C(=O)C6CCOC6=O)C5)C4)cc13)C(O)CC2 (stereo not drawn) [Example E56]
4. CN(c1nc(-c2ccc(F)cc2)c(C#N)s1)c1c2c(nc3c(F)cc(N4CC5(CN(CC(=O)N6CC(O)C6)C5)C4)cc13)C(O)CC2 (stereo not drawn) [Example E57]

6.53
6.50
6.30
6.74

---

I'd appreciate it if you could supply IC50 values for the items below.
target: UniProtKB Q13822; experiment: ATX enzyme inhibition assay (Amplex UltraRed/choline oxidase/HRP, 16:0 Lyso PC substrate); type: biochemical; settings: assay buffer pH 8.5; read-out: IC50 (nM) pH 8.5
Answers are plain numbers, in nM.

CN(c1nc(-c2ccc(F)cc2)c(C#N)s1)c1c2c(nc3cnc(N4CCN(CC(=O)N5CC(O)C5)CC4)cc13)CCC2
84
CN(c1nc(-c2ccc(F)cc2)c(C#N)s1)c1c2c(nc3c(F)cc(N4CC5(CN(C(=O)N6CCCC6)C5)C4)cc13)[C@H](O)CC2 (single isomer, unassigned)
21.5

Please give IC50 for each item listed below.
1. CN(c1nc(-c2ccc(F)cc2)c(C#N)s1)c1c2c(nc3ccc(N4CCN(CC(=O)N5CC(O)C5)CC4)cc13)CC2
2. C[C@@H]1CN(CC(=O)N2CC(O)C2)CCN1c1cc(F)c2nc3c(c(N(C)c4nc(-c5ccc(F)cc5)c(C#N)s4)c2c1)CC[C@H]3O (single isomer, unassigned)
3. CN(c1nc(-c2ccc(F)cc2)c(C#N)s1)c1c2c(nc3c(F)cc(N4CC5(CN(C(=O)C(C)(C)O)C5)C4)cc13)C(O)CC2 (stereo not drawn)
4. CN(c1nc(-c2ccc(F)cc2)c(C#N)s1)c1c2c(nc3c(F)cc(N4CC5(CN(C(=O)[C@@]6(O)CCOC6)C5)C4)cc13)[C@@H](O)CC2 (single isomer, unassigned) [Example E19-2b]

[22.2, 14, 16.8, 334]

I need IC50 for every entry listed below, if you could help.
1. CN(c1nc(-c2ccc(F)cc2)c(C#N)s1)c1c2c(nc3c(F)cc(N4CC5(CN(C(=O)[C@@H]6COC[C@H]6O)C5)C4)cc13)[C@@H](O)CC2 (single isomer, unassigned)
2. CN(c1nc(-c2ccc(F)cc2)c(C#N)s1)c1c2c(nc3c(F)cc(N4CC5(CN(C(=O)[C@@H]6CCOC6)C5)C4)cc13)CC2
3. CN(c1nc(-c2ccc(F)cc2)c(C#N)s1)c1c2c(nc3ccc(N4CCN(CC(=O)N5CC(O)C5)CC4)cc13)CCC2
4. CN(c1nc(-c2ccc(F)cc2)c(C#N)s1)c1c2c(nc3c(F)cc(N4CC5(CN(C(=O)[C@@H]6CCOC6)C5)C4)cc13)CCC2
5. CN(c1nc(-c2ccc(F)cc2)c(C#N)s1)c1c2c(nc3c(F)cc(N4CC5(CN(CC(=O)N6CC(O)C6)C5)C4)cc13)CCC2
6. CN(c1nc(-c2ccc(F)cc2)c(C#N)s1)c1c2c(nc3c(F)cc(N4CC5(CN(CC(=O)N6CC(CO)C6)C5)C4)cc13)COC2

1: 18.1; 2: 27.5; 3: 27.7; 4: 23.8; 5: 86.8; 6: 226
